These measurements were taken from patent US20250361210A1.

- target_or_system: human TSHR (Homo sapiens)
- Sequence (P16473 21-764): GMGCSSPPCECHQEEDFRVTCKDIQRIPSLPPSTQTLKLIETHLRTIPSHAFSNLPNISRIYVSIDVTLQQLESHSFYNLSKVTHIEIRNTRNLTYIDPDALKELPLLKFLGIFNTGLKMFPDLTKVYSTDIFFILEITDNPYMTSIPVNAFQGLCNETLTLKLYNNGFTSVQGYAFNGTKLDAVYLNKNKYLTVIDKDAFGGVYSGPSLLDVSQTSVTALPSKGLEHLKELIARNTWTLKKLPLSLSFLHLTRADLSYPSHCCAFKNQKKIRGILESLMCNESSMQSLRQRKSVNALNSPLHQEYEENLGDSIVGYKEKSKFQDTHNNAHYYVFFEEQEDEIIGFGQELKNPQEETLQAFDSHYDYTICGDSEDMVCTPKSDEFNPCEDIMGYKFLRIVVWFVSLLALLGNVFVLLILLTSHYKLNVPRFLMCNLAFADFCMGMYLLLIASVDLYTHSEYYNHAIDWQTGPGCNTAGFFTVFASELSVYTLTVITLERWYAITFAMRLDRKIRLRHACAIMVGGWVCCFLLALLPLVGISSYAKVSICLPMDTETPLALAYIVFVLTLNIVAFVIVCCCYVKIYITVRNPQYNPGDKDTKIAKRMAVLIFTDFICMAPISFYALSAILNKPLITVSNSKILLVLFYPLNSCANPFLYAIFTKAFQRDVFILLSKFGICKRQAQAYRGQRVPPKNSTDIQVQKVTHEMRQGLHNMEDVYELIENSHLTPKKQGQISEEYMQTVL
- procedure_details: Antagonist activity using TSH-induced cAMP production in human TSHR-stably expressing CHO cells
- settings: human TSH 50 ng/mL
quantity: IC50

- entry_smiles: "CN1C(=O)[C@H](NC(N)=O)Cc2ccc(Cl)c(Cc3ccccc3Cl)c21"
  quantity: "IC50"
  result: "< 500 nM"
- entry_smiles: "COc1cccc(Oc2c(Cl)ccc3c2N(C)C(=O)[C@H](NC(N)=O)C3)c1"
  quantity: "IC50"
  result: "500 to 3000 nM"

Consider the additional molecule presented here.
Reported IC50 for Cc1ccc2c(c1Oc1cc(F)ccc1F)N(C)C(=O)[C@H](NC(N)=O)C2 was < 500 nM
